self-cleavage values by entry
B1: HDV Ribozyme (parent)
chain: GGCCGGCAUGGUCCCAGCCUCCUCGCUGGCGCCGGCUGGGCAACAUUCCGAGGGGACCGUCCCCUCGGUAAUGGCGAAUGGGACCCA

- Variants of: B1
- assayMethodText: self-cleavage, relative activity (ratio to wild type); higher = more cleavage; co-transcriptional

# mutantLabel, self-cleavage
data = [
    ("C61U A83G", 0.692),
    ("C26U A51G", 0.95),
    ("G74U G82C", 0.0723),
    ("C33G C57A", 0.147),
    ("C62A U72A", 0.54),
    ("C22U U37A", 0.166),
    ("C24G A83C", 0.0923),
    ("U20C G54A", 0.145),
    ("U20G C85G", 0.158),
    ("C33U C48U", 0.847),
]
